Test: chemical genetic growth profiling, strain panel (AID 1159580);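 note: tested at 20 µM; growth read once vehicle control cultures reached saturation at 30 °C; 1 = growth at the plate median or of vehicle wells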
Settings: S. cerevisiae deletion strains, growth OD, locus YER155C, strain BEM2 (second series)
Among all 5,500 compounds or so, about 2,000 (36%) were called active. Roughly 18% stayed inconclusive and do not appear here. Cut-off read from the data, not from the text of the source: active = normalized growth mostly below about 0.91 (no sharp cut-off); inconclusive = no clear call, values can overlap the other calls; inactive = mostly above about 0.92. The list shows a part of the results.
Pick one and only one: active, inactive

# compound, assigned-label
data = [
    ("CC1=C2CCC3C(CC[C@]4(C)C(=O)CCC34)[C@@]2(C)CCC1=O (stereo partly drawn)", "inactive"),
]

Here's the next entry for you.
Data request: // outcome(item) with item = COc1ccc2ccc(=O)oc2c1CC=C(C)C
Data returned: active

====

Experiment: chemical genetic growth profiling, strain panel (AID 1159580)
Settings: S. cerevisiae deletion strains, growth OD, locus YGR229C, strain SMI1, stronger effect = lower value
Hit rate of the full screen: of about 5,500 compounds, about 2,000 (36%) were called active. Roughly 18% stayed inconclusive and do not appear here. The list shows a part of the results.
Please note: normalized growth exactly at 1 is f. Only values below 1 get t.

Some entries whose results are on file:
# compound, assigned-label
measured = [
    ("COc1cc(O)c(C(=O)c2ccccc2)c(OC)c1", "t"),
    ("CCOc1ccc(Cc2nccc3cc(OCC)c(OCC)cc23)cc1OCC", "t"),
    ("CC(=O)OC1CCC2C3CCc4cc(O)ccc4C3CCC12C (configuration not stated)", "t"),
]

Data request: Is normalized growth strictly under 1 for the entry CC(=O)Oc1ccc2c(c1)CCC1C2CC[C@@]2(C)C1CC[C@@H]2OC(C)=O (some centres not stated) ?
Data returned: t

Data request: Find out if reported normalized growth for CN1CCN(C(c2ccccc2)c2ccccc2)CC1 is less than 1
Data returned: f

Data request: Does the reported normalized growth of the following compound sit strictly below 1? CCOC(=O)c1ncn2c1[C@@H]1CCCN1C(=O)c1cc(OC)ccc1-2
Data returned: f

====

Exercise: state measured normalized growth for each of the molecules provided.
Assay: chemical genetic growth profiling, strain panel (AID 1159580)
Settings: S. cerevisiae deletion strains, growth OD, locus YCL061C, strain MRC1, stronger effect = lower value
Screen size: about 5,500 compounds; about 2,000 (36%) were called active. Roughly 18% stayed inconclusive and do not appear here. This is one part of the list.
Give bare numbers.

Previously resolved entries follow.
# molecule, observed-value
records = [
    ("O=c1c(-c2ccc3c(c2)OCO3)coc2cc(O)ccc12", 0.998),
    ("COc1cc(OC)c(C(C)=O)c(O)c1C", 0.937),
    ("CC1=C(C(=O)O)N2C(=O)[C@@H](NC(=O)[C@H](N)C3=CCC=CC3)C2SC1 (some centres undefined)", 1.02),
    ("C[C@]12C=CC(=O)C=C1CCC1C2CC[C@]2(C)C(=O)CCC12 (some centres undefined)", 0.972),
    ("CCC(=O)O[C@H]1CCC2C3CCc4cc(O)ccc4C3CC[C@@]21C (some centres undefined)", 0.991),
    ("c1ccc2c(c1)[nH]c1cnccc12", 0.997),
]

Hey, quick one: what's normalized growth for each of these?
1. O=C(O)CCCN1C(=O)c2cccc3cccc(c23)C1=O
2. COc1ccc2c(=O)c(-c3cc4c(cc3OC)OCO4)coc2c1
3. CSCCC(NC=O)C(=O)NC(CC(C)C)C(=O)NC(Cc1ccccc1)C(=O)O (centres undefined)

Data returned:
1. 1.02
2. 1.01
3. 1.01

Record normalized growth for all entries; do not skip any.
1. CCOc1nc2cccc(C(=O)OC(C)OC(=O)OC3CCCCC3)c2n1Cc1ccc(-c2ccccc2-c2nn[nH]n2)cc1 (centres undefined)
2. CC(C)=CCc1c(O)cc2occ(-c3ccc4c(c3)OCO4)c(=O)c2c1O
3. CC(=O)OCC(=O)[C@@]1(O)CCC2C3CCC4=CC(=O)CC[C@]4(C)[C@@]3(F)[C@@H](O)C[C@@]21C (some centres undefined)
4. O=C(O)c1cccc(O)c1O
5. CCCCC(=O)O[C@H]1CCC2C3CCc4cc(O)ccc4C3CC[C@@]21C (some centres undefined)
6. CC1(C)C[C@@H]2C(=O)CC[C@H]3O[C@]3(C)CC[C@H]21
7. O=C1c2ccccc2C(=O)c2c1ccc(O)c2O

Data returned:
1. 1.02
2. 0.909
3. 1.02
4. 1.01
5. 1.02
6. 1.01
7. 0.608

List the reported normalized growth of each molecule below.
1. CSc1sc(-c2ccn[nH]2)c(-c2ccccc2)c1C#N
2. O=C(O)c1cc2cc(Cl)ccc2[nH]1
3. O=C(NCCNc1ccc(C(F)(F)F)cc1[N+](=O)[O-])c1cccs1
4. O=C1c2ccccc2-c2cccc3cccc1c23
5. O=C1c2ccccc2C(=O)c2c(O)c(O)cc(O)c21
6. S=c1[nH]nc(-c2ccco2)n1-c1ccc2c(c1)OCCO2
7. COc1cc(O)c(C(=O)O)c(O)c1
8. Cc1ccc(/C(C#N)=C2C=C/C(=N/O)C(Cl)=C\2Cl)cc1

Data returned:
0.981
0.984
0.983
0.867
0.503
0.994
0.979
0.965

Could you report normalized growth for every entry in the following list?
1. CC(O)CNc1ccc(C(F)(F)F)cc1[N+](=O)[O-] (centres undefined)
2. NNC(=S)Nc1cc(C(F)(F)F)ccc1Cl
3. Cc1c(-n2cccc2)cc2c(c1[N+](=O)[O-])C(C)(C)CC2(C)C
4. C[C@]12C=CC(=O)C=C1CCC1C2C(=O)C[C@@]2(C)C1CC[C@]2(O)C(=O)CO (some centres undefined)

Data returned:
1: 1.03; 2: 0.828; 3: 1.01; 4: 1

====

Test: chemical genetic growth profiling, strain panel (AID 1159580)
Conditions: S. cerevisiae deletion strains, growth OD, locus YJR075W, strain HOC1
The campaign covered roughly 5,500 compounds. About 2,000 (36%) were called active. Roughly 18% stayed inconclusive and do not appear here. Cut-off read from the data, not from the text of the source: active = normalized growth mostly below about 0.91 (no sharp cut-off); inconclusive = no clear call, values can overlap the other calls; inactive = mostly above about 0.92. This is one part of the list.
// allowed return values: t (active), f (inactive)

# compound, assigned-label
records = [
    ("O=c1cc(-c2ccc(O)cc2)oc2cc(O[C@@H]3O[C@H](CO)[C@@H](O)[C@H](O)[C@H]3O[C@@H]3OC[C@](O)(CO)[C@H]3O)cc(O)c12", "f"),
]

Data request: State the result this test recorded for COc1cc(O)c(C)c(O)c1 .
Data returned: f

Data request: Could you check what this test reported for CCCc1cc(C(=O)Nc2ccc(N(CC)CC)cc2)nn1-c1ccccc1 ?
Data returned: f

====

Please provide measured normalized growth for the entries that follow.
Assay: chemical genetic growth profiling, strain panel (AID 1159580);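 note: tested at 20 µM; growth read once vehicle control cultures reached saturation at 30 °C; 1 = growth at the plate median or of vehicle wells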
Conditions: S. cerevisiae deletion strains, growth OD, locus YLR085C, strain ARP6, stronger effect = lower value
Among all 5,500 compounds or so, about 2,000 (36%) were called active. Roughly 18% stayed inconclusive and do not appear here. This is one part of the list.

The following compounds have reported results that may help.
# record-smiles, normalized growth
data = [
    ("CCC(=O)Oc1ccc(NC(=S)NCCCO)cc1", "1.04 (inactive)"),
    ("NC(=S)c1ccc2nonc2c1", "0.945 (inactive)"),
    ("CCc1cccc(C)c1NC(=O)N1CCN(C(=O)OC(C)(C)C)CC1", "1 (inactive)"),
    ("O=C(c1ccc(Cl)cc1)N1CCN(c2ccc(C(F)(F)F)cn2)CC1", "0.436 (active)"),
    ("FC(F)(F)c1ccc(-n2cncn2)nc1", "1.24 [resistant] (active)"),
]

Now for another entry.
Data request: Request the reported normalized growth associated with Cc1ccc(/C(C#N)=C2C=C/C(=N/O)C(Cl)=C\2Cl)cc1
Data returned: 0.825 (inactive)

====

Assay: chemical genetic growth profiling, strain panel (AID 1159580);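 note: tested at 20 µM; growth read once vehicle control cultures reached saturation at 30 °C; 1 = growth at the plate median or of vehicle wells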
Conditions: S. cerevisiae deletion strains, growth OD, locus YOR080W, strain dia2, stronger effect = lower value
Out of some 5,500 compounds screened, about 2,000 (36%) were called active. Another 18% or so got no clear call; they are omitted. The list shows a part of the results.
Rule: normalized growth below 1 gives label 1. Equal to or above 1 gives label 0.

Some solved cases for reference:
# record-smiles, assigned-label
records = [
    ("O=c1[nH]cnc2nc[nH]c12", "label 0"),
    ("COc1c2occc2cc2ccc(=O)oc12", "label 1"),
]

Data request: Find out if reported normalized growth for O=C(CCCN1CC=C(n2c(=O)[nH]c3ccccc32)CC1)c1ccc(F)cc1 is less than 1
Data returned: label 1

====

Test: chemical genetic growth profiling, strain panel (AID 1159580);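 note: tested at 20 µM; growth read once vehicle control cultures reached saturation at 30 °C; 1 = growth at the plate median or of vehicle wells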
Conditions: S. cerevisiae deletion strains, growth OD, locus YLR370C, strain arc18
In all, about 5,500 compounds went through this assay and about 2,000 (36%) were called active. Not shown: some 18% with an inconclusive outcome. Cut-off read from the data, not from the text of the source: active = normalized growth mostly below about 0.91 (no sharp cut-off); inconclusive = no clear call, values can overlap the other calls; inactive = mostly above about 0.92. The list shows a part of the results.
Outcomes you can answer with include only these: active, inactive

# molecule, assigned-label
measured = [
    ("FC(F)(F)COCC(F)(F)F", "inactive"),
]

Next, consider the following molecule.
Data request: How did this test come out for COc1cc(O)c(C(C)=O)c(OC)c1 ?
Data returned: inactive
